EXPERIMENTAL_TARGET: Zinc finger protein mex-5 (Caenorhabditis elegans) (UniProt Q9XUB2)
Sequence (Q9XUB2 whole entry, looked up): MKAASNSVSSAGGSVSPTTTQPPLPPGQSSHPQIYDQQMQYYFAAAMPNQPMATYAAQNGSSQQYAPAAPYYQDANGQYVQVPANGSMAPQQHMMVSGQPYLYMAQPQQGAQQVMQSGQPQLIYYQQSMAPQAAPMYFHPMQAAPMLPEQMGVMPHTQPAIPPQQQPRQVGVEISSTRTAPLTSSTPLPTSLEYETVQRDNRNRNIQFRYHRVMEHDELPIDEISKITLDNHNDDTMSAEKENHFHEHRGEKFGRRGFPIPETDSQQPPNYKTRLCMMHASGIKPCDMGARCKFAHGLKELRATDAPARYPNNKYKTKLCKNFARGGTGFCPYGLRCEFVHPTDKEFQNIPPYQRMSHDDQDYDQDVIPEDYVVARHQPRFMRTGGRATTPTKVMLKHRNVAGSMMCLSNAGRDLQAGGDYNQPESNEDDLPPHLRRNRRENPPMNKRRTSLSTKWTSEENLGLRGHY
METHOD_SUMMARY: MEX-5 zinc finger RNA-binding disruptors – biochemical, C. elegans, fluorescence polarization, MLPCN library, primary screen (AID 1832);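 also: 0% = DMSO and -100% = 5 µM competing unlabeled TCR2 RNA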
CONDITION_DETAILS: MEX-5/FITC-TCR2 RNA binding, at 10 µM, stronger effect = lower value
About 1,100 (0.37%) of roughly 300,000 compounds were called active. Only a selection was taken, and actives are over-represented in it overall.
VALUE_KIND: activity score (negative = inhibition of binding) (%)
Answer format: numeric, % implied, no suffix.

Example entries begin here.
> print(dat)
                                   compound  recorded.measurement
1  Cc1cccc(N2C(=O)NC(=O)/C(=C\c3cnn(-c4ccccc4)c3)C2=O)c1                  1.06
2  COc1ccc(CN2C(=O)NC(=O)/C(=C\c3ccc(OC)c(OC)c3OC)C2=O)cc1                  7.01

# return recorded activity score (negative = inhibition of binding) for entry CN(C)CC1CCCCC1OC(=O)c1ccc(Cl)c(Cl)c1 (stereo not drawn)
-0.533

Consider the compound `Cc1cc(/C=C2/C(=O)NC(=O)N(Cc3ccco3)C2=O)c(C)n1-c1ccc(C(=O)O)cc1` and give its recorded activity score (negative = inhibition of binding).
-4.55

Supply recorded activity score (negative = inhibition of binding) for `O=C1NC(=O)N(c2ccc(F)cc2)C(=O)/C1=C/c1ccc2c(c1)CCCN2Cc1ccccc1` here.
-7.18

Indicate its recorded activity score (negative = inhibition of binding); the compound in question is `COc1ccc2[nH]c3c(c2c1)CCN[C@H]3C`
2.22

Please report activity score (negative = inhibition of binding) for the following compound: `O=Cc1cn(Cc2ccc(F)cc2Cl)c2ccccc12`
-1.5

Give the reported activity score (negative = inhibition of binding) for this compound. `COc1cccc(-c2nc3ccc(N4CCN(C)CC4)cc3[nH]2)c1`
2.54
